# System: Escherichia coli TOP10
# experiment-summary: shrunken log2 fold change of peptide-encoding DNA abundance (4.5 h post-induction vs induction); higher = less antimicrobial activity (less host growth inhibition)
# condition: time post-induction: 4.5 h; library: site-saturation at positions 5, 18, 19, 20
measure-name: shrunken log2 fold change

Example sequences with recorded shrunken log2 fold change:
[
  {
    "query-sequence": "RRIRTRPPRLPRPRPRPHFGPRP",
    "shrunken log2 fold change": -0.00836
  },
  {
    "query-sequence": "RRIRERPPRLPRPRPRPREIPRP",
    "shrunken log2 fold change": 0.214
  },
  {
    "query-sequence": "RRIRDRPPRLPRPRPRPFPTPRP",
    "shrunken log2 fold change": 0.0231
  },
  {
    "query-sequence": "RRIRRRPPRLPRPRPRPAHMPRP",
    "shrunken log2 fold change": 0.405
  },
  {
    "query-sequence": "RRIRMRPPRLPRPRPRPMILPRP",
    "shrunken log2 fold change": -0.0491
  }
]

Any idea what its shrunken log2 fold change is? The sequence is RRIRMRPPRLPRPRPRPDTLPRP
-0.122

Any idea what its shrunken log2 fold change is? The sequence is RRIRARPPRLPRPRPRPCMWPRP
0.117

Any idea what its shrunken log2 fold change is? The sequence is RRIRHRPPRLPRPRPRPWDFPRP
-0.0612

Any idea what its shrunken log2 fold change is? The sequence is RRIRPRPPRLPRPRPRPWTTPRP
-0.012

Any idea what its shrunken log2 fold change is? The sequence is RRIRPRPPRLPRPRPRPERWPRP
0.56

Any idea what its shrunken log2 fold change is? The sequence is RRIRGRPPRLPRPRPRPANKPRP
0.209

Any idea what its shrunken log2 fold change is? The sequence is RRIRDRPPRLPRPRPRPNDTPRP
0.0133

----------
# Tested on: Escherichia coli TOP10;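 note: peptides expressed intracellularly from a pBAD plasmid library in pooled LB shake-flask culture, induced with 0.3% L-arabinose, DNA abundance read by NGS, three biological replicates, DESeq2 with apeglm shrinkage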
# experiment-summary: shrunken log2 fold change of peptide-encoding DNA abundance (4.5 h post-induction vs induction); higher = less antimicrobial activity (less host growth inhibition)
# condition: time post-induction: 4.5 h; library: site-saturation at positions 5, 18, 19, 20
shrunken log2 fold change below -0.05 gives not met; shrunken log2 fold change at or above it gives met.

Illustrative cases are given below, each with its answer.
[
  {
    "query-sequence": "RRIRSRPPRLPRPRPRPCCVPRP",
    "assayed-target": "Escherichia coli TOP10",
    "category": "met"
  },
  {
    "query-sequence": "RRIRERPPRLPRPRPRPVFQPRP",
    "assayed-target": "Escherichia coli TOP10",
    "category": "not met"
  },
  {
    "query-sequence": "RRIRPRPPRLPRPRPRPIQGPRP",
    "assayed-target": "Escherichia coli TOP10",
    "category": "not met"
  },
  {
    "query-sequence": "RRIRERPPRLPRPRPRPMMKPRP",
    "assayed-target": "Escherichia coli TOP10",
    "category": "not met"
  },
  {
    "query-sequence": "RRIRARPPRLPRPRPRPNTGPRP",
    "assayed-target": "Escherichia coli TOP10",
    "category": "met"
  }
]

Is it the case that RRIRSRPPRLPRPRPRPQAMPRP has shrunken log2 fold change reaching or exceeding -0.05?
met

Is it the case that RRIRIRPPRLPRPRPRPRSDPRP has shrunken log2 fold change reaching or exceeding -0.05?
not met

Is it the case that RRIRCRPPRLPRPRPRPWIDPRP has shrunken log2 fold change reaching or exceeding -0.05?
met
